TARGET: NEDD8 activating enzyme (Homo sapiens)
Sequence (Q8TBC4 whole entry): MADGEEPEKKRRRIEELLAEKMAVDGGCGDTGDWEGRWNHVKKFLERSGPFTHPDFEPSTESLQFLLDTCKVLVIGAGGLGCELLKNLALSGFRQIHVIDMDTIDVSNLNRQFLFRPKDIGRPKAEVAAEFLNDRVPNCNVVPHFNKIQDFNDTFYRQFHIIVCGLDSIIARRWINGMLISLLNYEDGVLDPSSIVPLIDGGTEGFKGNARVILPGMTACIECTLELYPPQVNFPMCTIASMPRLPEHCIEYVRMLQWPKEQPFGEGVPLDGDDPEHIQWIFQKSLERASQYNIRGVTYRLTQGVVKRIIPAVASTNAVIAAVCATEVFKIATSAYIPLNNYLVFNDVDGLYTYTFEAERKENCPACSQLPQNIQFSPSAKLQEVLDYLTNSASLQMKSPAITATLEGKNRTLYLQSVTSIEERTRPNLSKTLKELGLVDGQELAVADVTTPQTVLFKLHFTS
Sequence (Q13564 whole entry, further chain): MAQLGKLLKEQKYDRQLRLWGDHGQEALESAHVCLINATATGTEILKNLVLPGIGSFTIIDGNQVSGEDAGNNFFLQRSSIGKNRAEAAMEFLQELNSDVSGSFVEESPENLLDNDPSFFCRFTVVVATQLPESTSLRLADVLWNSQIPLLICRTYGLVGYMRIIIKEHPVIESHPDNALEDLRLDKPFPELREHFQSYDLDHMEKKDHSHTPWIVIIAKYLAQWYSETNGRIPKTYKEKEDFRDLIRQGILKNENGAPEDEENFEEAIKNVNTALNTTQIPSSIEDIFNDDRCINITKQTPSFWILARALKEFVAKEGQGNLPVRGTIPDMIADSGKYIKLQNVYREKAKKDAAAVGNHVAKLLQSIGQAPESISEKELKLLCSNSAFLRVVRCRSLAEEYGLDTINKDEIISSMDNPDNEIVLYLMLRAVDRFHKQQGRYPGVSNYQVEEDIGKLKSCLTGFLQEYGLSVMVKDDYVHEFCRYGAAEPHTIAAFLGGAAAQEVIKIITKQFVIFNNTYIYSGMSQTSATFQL
TEST_NAME: Inhibition of NAE (unknown origin) using GST-tagged Ubc12 and Flag-tagged Nedd8 measured after 2 hrs by TR-FRET assay
Threshold 0.01 µM: IC50 strictly smaller gives criterion met, otherwise criterion not met.

Solved entries:
{"STRUCTURE_STRING": "NS(=O)(=O)OC[C@H]1C[C@@H](Nc2ncncc2C(=O)c2cn(Cc3ccc(F)c(F)c3)c3ccccc23)[C@H](O)[C@@H]1O", "ASSIGNED_CLASS": "criterion not met"}
{"STRUCTURE_STRING": "NS(=O)(=O)OC[C@H]1C[C@@H](Nc2ncncc2C(=O)c2cn(Cc3cc(Cl)ccc3Cl)c3ccccc23)[C@H](O)[C@@H]1O", "ASSIGNED_CLASS": "criterion not met"}
{"STRUCTURE_STRING": "NS(=O)(=O)OC[C@H]1C[C@@H](Nc2ncncc2C(=O)c2cn(Cc3ccc(F)cc3F)c3ccccc23)[C@H](O)[C@@H]1O", "ASSIGNED_CLASS": "criterion met"}
{"STRUCTURE_STRING": "Cc1cc(Cn2cc(C(=O)c3cncnc3N[C@@H]3C[C@H](COS(N)(=O)=O)[C@@H](O)[C@H]3O)c3cc(F)ccc32)ccc1F", "ASSIGNED_CLASS": "criterion not met"}
{"STRUCTURE_STRING": "NS(=O)(=O)OC[C@H]1C[C@@H](Nc2ncncc2C(=O)c2cn(Cc3ccccc3)c3ccccc23)C[C@@H]1O", "ASSIGNED_CLASS": "criterion met"}
{"STRUCTURE_STRING": "NS(=O)(=O)OC[C@H]1C[C@@H](Nc2ncncc2C(=O)c2cn(Cc3ccc4ccccc4c3)c3ccc(F)cc23)[C@H](O)[C@@H]1O", "ASSIGNED_CLASS": "criterion not met"}

### Prompt Hello, is IC50 of the following molecule strictly smaller than 0.01 µM? "NS(=O)(=O)OC[C@H]1C[C@@H](Nc2ncncc2C(=O)c2cn(Cc3cccc(Br)c3)c3ccc(F)cc23)[C@H](O)[C@@H]1O"
### Response criterion met

### Prompt Hello, is IC50 of the following molecule strictly smaller than 0.01 µM? "NS(=O)(=O)OC[C@H]1C[C@@H](Nc2ncncc2C(=O)c2cn(Cc3cccc(N4CCOCC4)c3)c3ccc(F)cc23)[C@H](O)[C@@H]1O"
### Response criterion not met

* * *

TARGET: SUMO-activating enzyme (Homo sapiens, UniProt Q9UBT2)
Sequence (Q9UBE0 whole entry): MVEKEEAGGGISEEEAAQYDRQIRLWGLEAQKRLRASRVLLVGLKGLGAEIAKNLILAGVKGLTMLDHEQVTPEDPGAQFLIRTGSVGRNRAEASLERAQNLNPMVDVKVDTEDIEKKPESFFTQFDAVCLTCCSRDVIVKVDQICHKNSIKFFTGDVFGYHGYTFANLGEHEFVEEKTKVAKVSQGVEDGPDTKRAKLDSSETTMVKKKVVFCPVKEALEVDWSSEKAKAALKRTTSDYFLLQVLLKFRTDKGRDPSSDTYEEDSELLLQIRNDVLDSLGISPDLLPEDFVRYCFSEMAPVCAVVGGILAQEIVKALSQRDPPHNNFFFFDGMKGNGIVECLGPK
Sequence (Q9UBT2 whole entry): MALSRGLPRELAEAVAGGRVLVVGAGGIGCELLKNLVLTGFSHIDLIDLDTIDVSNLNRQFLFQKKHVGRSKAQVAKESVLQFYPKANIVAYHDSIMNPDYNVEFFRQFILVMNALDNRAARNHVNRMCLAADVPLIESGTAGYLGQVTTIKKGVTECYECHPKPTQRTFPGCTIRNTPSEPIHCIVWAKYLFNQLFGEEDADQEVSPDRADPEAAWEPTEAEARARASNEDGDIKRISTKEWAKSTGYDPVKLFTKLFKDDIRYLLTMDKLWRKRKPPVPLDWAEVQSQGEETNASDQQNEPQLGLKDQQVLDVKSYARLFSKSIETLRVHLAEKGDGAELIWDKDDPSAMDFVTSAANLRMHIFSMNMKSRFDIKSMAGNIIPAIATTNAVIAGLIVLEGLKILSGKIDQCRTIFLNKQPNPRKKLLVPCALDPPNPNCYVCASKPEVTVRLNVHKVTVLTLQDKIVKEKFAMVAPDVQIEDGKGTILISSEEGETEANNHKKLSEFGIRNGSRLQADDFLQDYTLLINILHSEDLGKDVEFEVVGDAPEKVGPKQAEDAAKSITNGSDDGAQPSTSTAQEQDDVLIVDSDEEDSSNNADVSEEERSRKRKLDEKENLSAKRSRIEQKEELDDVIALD
TEST_NAME: Inhibition of SAE (unknown origin) using recombinant His-tagged human SUMO1 measured after 2 hrs by HTRF assay
pIC50: −log10 of the molar value.
We use 6 as the dividing line for pIC50: on or above the line is true, below is false.

{"COMPOUND": "NS(=O)(=O)OC[C@H]1C[C@@H](Nc2ncncc2C(=O)c2cn(Cc3ccccc3)c3ccccc23)[C@H](O)[C@@H]1O", "TARGET": "SUMO-activating enzyme (Homo sapiens, UniProt Q9UBT2)", "ASSIGNED_CLASS": "true"}

### Prompt State whether the measured pIC50 reaches 6, counting equality as reaching it, for "NS(=O)(=O)OC[C@H]1C[C@@H](Nc2ncncc2C(=O)c2cn(Cc3ccc(F)c(F)c3)c3ccccc23)[C@H](O)[C@@H]1O"
### Response false

### Prompt State whether the measured pIC50 reaches 6, counting equality as reaching it, for "NS(=O)(=O)OC[C@H]1C[C@@H](Nc2ncncc2C(=O)c2cn(Cc3cccc(F)c3)c3ccccc23)[C@H](O)[C@@H]1O"
### Response false

### Prompt State whether the measured pIC50 reaches 6, counting equality as reaching it, for "NS(=O)(=O)OC[C@H]1C[C@@H](Nc2ncncc2C(=O)c2cn(Cc3cccc(C(F)(F)F)c3)c3ccccc23)[C@H](O)[C@@H]1O"
### Response false
